Numbers sourced from ChEMBL document CHEMBL3774343.

molecular target: CREB-binding protein (Homo sapiens); assay: Binding affinity to N-terminal GST-tagged recombinant human CREBBP expressed in Escherichia coli after 2 hrs using BET bromodomain ligand by TR-FRET assay
Sequence (Q92793 whole entry): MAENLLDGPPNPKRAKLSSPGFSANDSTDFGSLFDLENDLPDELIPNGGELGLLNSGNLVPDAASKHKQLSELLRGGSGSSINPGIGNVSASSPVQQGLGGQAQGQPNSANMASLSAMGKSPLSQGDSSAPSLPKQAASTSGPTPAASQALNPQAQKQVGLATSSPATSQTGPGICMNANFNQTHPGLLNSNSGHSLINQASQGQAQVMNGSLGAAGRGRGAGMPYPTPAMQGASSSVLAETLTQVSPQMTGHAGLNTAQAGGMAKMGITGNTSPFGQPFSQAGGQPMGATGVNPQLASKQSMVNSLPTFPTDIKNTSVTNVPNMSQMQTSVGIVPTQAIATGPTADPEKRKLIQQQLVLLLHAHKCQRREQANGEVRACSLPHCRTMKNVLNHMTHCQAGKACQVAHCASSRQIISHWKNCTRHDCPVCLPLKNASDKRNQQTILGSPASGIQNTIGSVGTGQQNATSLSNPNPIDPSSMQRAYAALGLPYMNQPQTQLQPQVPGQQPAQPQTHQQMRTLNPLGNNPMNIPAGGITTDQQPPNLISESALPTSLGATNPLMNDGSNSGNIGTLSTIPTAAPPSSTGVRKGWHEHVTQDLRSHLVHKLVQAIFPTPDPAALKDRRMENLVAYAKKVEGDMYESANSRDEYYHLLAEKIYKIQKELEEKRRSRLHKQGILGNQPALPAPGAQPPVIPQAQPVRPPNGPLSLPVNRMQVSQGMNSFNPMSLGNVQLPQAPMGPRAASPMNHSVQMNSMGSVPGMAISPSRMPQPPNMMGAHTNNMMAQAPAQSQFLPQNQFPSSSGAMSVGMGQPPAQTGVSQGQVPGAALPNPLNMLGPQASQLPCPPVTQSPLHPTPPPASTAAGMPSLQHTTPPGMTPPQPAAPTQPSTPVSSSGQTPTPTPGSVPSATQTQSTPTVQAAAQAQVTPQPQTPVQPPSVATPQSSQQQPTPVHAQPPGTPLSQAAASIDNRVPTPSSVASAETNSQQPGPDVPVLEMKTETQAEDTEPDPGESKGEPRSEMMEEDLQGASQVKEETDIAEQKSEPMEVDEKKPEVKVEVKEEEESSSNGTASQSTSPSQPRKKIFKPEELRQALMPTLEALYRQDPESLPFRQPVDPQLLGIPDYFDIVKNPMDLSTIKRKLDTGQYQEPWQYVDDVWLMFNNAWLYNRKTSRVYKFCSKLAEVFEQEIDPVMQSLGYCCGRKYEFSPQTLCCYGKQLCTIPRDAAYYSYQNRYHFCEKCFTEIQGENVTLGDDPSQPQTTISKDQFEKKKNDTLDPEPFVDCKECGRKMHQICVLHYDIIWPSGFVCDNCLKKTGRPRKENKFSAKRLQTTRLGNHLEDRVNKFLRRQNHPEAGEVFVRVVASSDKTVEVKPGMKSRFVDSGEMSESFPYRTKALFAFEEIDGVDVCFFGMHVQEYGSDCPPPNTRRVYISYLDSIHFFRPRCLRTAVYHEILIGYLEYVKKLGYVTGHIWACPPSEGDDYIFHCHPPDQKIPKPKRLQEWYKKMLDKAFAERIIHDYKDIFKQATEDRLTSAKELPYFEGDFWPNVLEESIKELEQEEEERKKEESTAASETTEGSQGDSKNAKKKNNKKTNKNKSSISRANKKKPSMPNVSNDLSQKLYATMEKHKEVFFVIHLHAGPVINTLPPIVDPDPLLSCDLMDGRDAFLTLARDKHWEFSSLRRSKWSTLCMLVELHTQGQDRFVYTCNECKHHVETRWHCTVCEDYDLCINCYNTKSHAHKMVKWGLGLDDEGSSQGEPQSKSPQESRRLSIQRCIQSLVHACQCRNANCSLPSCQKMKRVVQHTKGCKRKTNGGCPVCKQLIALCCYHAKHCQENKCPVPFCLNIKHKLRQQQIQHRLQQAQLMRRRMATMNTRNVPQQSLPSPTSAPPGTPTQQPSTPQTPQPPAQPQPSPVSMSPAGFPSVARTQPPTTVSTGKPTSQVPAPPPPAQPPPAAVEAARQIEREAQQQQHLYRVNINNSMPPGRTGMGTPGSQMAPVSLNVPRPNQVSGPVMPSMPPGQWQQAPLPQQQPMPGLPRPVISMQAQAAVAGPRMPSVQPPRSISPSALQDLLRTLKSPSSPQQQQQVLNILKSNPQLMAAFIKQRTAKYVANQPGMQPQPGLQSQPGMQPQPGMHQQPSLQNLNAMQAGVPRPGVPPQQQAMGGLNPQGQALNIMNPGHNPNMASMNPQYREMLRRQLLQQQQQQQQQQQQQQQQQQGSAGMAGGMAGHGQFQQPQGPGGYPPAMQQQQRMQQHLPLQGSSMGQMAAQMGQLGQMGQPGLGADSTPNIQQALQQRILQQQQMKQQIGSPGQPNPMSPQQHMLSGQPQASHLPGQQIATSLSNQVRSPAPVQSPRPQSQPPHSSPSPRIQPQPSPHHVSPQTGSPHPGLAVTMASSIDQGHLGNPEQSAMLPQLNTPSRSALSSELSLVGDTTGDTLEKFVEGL
Each entry below carries its recorded IC50.

INSERT INTO assay_data (compound_structure_string, measured_metric, recorded_measurement) VALUES
  ('CC(=O)c1c(C)[nH]c(C(=O)Nc2cc(-c3nnco3)ccc2C)c1C', 'IC50', '> 100 µM'),
  ('CC(=O)c1c(C)[nH]c(C(=O)Nc2cc(C(=O)O)ccc2C)c1C', 'IC50', '> 10 µM');

Note: attention shifts to another entry.
# input Could you share which IC50 value was measured for CC(=O)c1c(C)[nH]c(C(=O)Nc2cccc(C(=O)O)c2)c1C ?
# output 1.5 µM

* * *

molecular target: CREB-binding protein (Homo sapiens, UniProt Q92793); test: Competitive binding affinity to partial length human CREBBP expressed in Escherichia coli BL21 after 1 hr by BROMOscan assay
MEASURED_METRIC: Kd (µM)

[1] CC(=O)c1c(C)[nH]c(C(=O)Nc2cc(-c3nnco3)ccc2C)c1C
[2] CC(=O)c1c(C)[nH]c(C(=O)Nc2cccc(C(=O)O)c2)c1C
# input Compare 1 and 2 by numeric Kd and name the larger one. Please indicate the selected item by its label.
# output 1
(1: 13 µM, 2: 4.2 µM)

* * *

biological target: CREB-binding protein (Homo sapiens, UniProt Q92793); experiment: Binding affinity to human CREBBP at 100 uM by thermal shift assay
Sequence (Q92793 2-2442 limits assumed): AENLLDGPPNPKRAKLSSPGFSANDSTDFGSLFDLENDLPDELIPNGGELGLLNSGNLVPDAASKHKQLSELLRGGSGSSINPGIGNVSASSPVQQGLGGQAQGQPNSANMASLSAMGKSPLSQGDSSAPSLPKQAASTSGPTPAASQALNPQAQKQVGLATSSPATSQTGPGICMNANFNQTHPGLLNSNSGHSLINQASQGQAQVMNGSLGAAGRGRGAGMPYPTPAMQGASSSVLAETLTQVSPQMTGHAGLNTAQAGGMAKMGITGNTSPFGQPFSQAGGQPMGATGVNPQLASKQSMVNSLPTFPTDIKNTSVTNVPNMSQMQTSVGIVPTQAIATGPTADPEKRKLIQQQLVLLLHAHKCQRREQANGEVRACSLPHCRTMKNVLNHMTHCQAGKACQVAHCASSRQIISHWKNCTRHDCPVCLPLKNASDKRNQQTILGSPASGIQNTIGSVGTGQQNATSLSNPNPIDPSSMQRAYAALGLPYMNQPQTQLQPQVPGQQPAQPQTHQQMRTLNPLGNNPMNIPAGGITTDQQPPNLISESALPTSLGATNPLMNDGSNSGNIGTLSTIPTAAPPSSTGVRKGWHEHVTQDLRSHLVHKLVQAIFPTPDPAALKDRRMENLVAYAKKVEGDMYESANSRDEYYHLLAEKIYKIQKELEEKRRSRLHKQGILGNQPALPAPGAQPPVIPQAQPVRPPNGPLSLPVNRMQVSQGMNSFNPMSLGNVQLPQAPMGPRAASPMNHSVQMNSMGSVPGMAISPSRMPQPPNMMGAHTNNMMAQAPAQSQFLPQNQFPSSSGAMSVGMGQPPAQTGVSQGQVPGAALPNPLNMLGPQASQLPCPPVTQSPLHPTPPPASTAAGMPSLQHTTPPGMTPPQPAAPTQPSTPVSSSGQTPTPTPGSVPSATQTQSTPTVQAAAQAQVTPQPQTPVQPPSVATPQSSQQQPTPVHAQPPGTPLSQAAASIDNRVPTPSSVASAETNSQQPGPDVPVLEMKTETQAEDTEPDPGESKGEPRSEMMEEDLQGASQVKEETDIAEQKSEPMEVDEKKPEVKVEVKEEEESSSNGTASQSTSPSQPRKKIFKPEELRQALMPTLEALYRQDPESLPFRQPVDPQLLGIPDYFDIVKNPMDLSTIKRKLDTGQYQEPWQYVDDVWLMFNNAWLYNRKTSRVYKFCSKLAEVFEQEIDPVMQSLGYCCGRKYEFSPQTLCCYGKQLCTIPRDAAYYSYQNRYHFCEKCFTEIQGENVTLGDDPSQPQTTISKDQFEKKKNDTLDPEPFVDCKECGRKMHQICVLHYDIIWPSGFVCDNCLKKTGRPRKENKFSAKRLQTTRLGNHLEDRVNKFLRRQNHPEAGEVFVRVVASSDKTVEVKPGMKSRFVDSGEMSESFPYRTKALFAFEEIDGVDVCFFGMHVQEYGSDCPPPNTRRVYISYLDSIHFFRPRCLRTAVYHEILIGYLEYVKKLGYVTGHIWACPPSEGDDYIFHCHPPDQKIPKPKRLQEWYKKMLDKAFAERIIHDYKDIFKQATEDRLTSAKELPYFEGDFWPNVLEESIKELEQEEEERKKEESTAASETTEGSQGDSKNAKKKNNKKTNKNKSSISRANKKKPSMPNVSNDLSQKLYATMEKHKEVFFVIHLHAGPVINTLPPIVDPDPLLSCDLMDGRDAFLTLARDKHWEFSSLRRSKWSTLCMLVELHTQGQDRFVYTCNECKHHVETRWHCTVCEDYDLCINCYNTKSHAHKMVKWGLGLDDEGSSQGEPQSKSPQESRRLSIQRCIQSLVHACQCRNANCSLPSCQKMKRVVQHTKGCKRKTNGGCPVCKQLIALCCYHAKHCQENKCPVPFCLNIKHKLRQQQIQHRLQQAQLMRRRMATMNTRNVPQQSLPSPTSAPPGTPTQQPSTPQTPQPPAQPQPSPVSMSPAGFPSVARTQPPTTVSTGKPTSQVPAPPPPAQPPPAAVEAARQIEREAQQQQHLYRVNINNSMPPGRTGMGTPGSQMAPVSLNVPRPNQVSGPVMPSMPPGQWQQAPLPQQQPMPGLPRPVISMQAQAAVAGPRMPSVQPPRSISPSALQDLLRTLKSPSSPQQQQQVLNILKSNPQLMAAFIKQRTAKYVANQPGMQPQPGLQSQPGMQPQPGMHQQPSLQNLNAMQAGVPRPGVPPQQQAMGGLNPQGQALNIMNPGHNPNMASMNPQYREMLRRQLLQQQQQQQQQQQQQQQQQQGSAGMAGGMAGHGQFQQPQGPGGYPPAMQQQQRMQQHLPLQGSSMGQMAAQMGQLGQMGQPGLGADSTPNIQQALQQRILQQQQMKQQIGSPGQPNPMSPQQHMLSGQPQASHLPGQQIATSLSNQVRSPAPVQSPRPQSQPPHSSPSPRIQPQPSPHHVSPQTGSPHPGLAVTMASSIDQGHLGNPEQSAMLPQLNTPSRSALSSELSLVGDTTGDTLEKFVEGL
MEASURED_METRIC: ΔTm (°C)

See these solved cases before continuing.
INSERT INTO measurements (compound_structure_string, experimental_target, measured_metric, unit_annotation, recorded_measurement) VALUES
  ('CCCc1c(C(=O)NCc2c(C)cc(C)[nH]c2=O)[nH]c(C)c1C(C)=O', 'CREB-binding protein (Homo sapiens, UniProt Q92793)', 'ΔTm', '°C', 0.3),
  ('CC(=O)c1c(C)[nH]c(C(=O)Nc2cc(C(=O)O)ccc2C)c1C', 'CREB-binding protein (Homo sapiens, UniProt Q92793)', 'ΔTm', '°C', 1.4);

[1] CC(=O)c1c(C)[nH]c(C(=O)Nc2cc(-c3nnco3)ccc2C)c1C
[2] CC(=O)c1c(C)[nH]c(C(=O)Nc2cccc(C(=O)O)c2)c1C
[3] CCn1cnnc1CNC(=O)c1[nH]c(C)c(C(C)=O)c1C
# input Sequence the entries by ΔTm, beginning with the highest number. Sort and list the labels as requested.
# output 2, 3, 1

* * *

target: UniProtKB Q92793; assay: Competitive binding affinity to partial length human CREBBP expressed in Escherichia coli BL21 at 50 uM after 1 hr by BROMOscan assay relative to control
MEASURED_METRIC: Activity (%)

See these solved cases before continuing.
INSERT INTO assay_data (compound_structure_string, unit_annotation, recorded_measurement) VALUES
  ('CCn1cnnc1CNC(=O)c1[nH]c(C)c(C(C)=O)c1C', '%', 5),
  ('CCCc1c(C(=O)NCc2c(C)cc(C)[nH]c2=O)[nH]c(C)c1C(C)=O', '%', 3);

[I] CC(=O)c1c(C)[nH]c(C(=O)Nc2cc(-c3nnco3)ccc2C)c1C
[II] COC(=O)c1ccc(C)c(NC(=O)c2[nH]c(C)c(C(C)=O)c2C)c1
# input Compare I and II by numeric Activity and name the larger one. Please indicate the selected item by its label.
# output II
